assay-system: T1, human CD8 alpha (CD8A) on primary human CD8+ T cells (human, UniProt P01732 22-235)
T1 construct: whole, on cells; also called hCD8A
T1 sequence (P01732 22-235): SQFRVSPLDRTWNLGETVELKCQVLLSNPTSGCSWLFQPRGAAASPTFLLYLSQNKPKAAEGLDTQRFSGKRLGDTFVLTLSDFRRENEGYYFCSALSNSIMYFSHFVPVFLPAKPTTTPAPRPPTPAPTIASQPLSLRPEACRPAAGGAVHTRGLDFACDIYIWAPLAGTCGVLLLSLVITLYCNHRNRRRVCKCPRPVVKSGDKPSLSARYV
assay-text: flow cytometry, human CD8+ T cells
Reported Human T-cell Binding 0.2 uM (MFI) values for a set of binders
Quick note: give the figure in MFI, leave out the unit.

Answered examples (5):
P283BR9P1363_F6 (designed binder, FN3 domain) LPAPKNLVVSRVTEDSARLSWPEEAVTATSFDSFLIQYQESEKVGEAIVLTVPGSERSYDLTGLKPGTEYTVSIYGVDVKWEGNRPVASNPLSAIFTT; 3230
P283HR7P1368_C3 (designed binder, FN3 domain) LPAPKNLVVSRVTEDSARLSWTAPDAAFDSFGIGYAEPAVTGEAISLSVPGSKRSYDLTGLKPGTEYWVVIIGVKGGINSYPLGASFTT; 2220
P283GR7P1367_B7 (designed binder, FN3 domain) LPAPKNLVVSRVTEDSARLSWTAPDAAFDSFDIAYPEWPTDGEAIVLTVPGSERSYDLTGLKPGTEYFVVIYGVKGGHWSYPLSAIFTT; 739
P283DR9P1364_B11 (designed binder, FN3 domain) LPAPKNLVVSRVTEDSARLSWTAPDAAFDSFYISYPEWEQLGEAIVLTVPGSERSYDLTGLKPGTEYFVVIYGVKGGALSAPLSAIFTT; 451
P283HR7P1368_D4 (designed binder, FN3 domain) LPAPKNLVVSRVTEDSARLSWTAPDAAFDSFAIWCVEPIPEGEAIPLFVPGSERSYDLTGLKPGTEYRVGIRGVKGGTFSSPLAAPFTT; 6850

Query string: Identify the reported Human T-cell Binding 0.2 uM (MFI) for the following entry. P283DR9P1364_H11 (designed binder, FN3 domain) LPAPKNLVVSRVTEDSARLSWTAPDAAFDSFDIAYPELPLGGEAIVLTVPGSERSYDLTGLKPGTEYFVIIWGVKGGDRSEPLSAIFTT
Result string: 834

Query string: Identify the reported Human T-cell Binding 0.2 uM (MFI) for the following entry. P283DR9P1364_E7 (designed binder, FN3 domain) LPAPKNLVVSRVTEDSARLSWTAPDAAFDSFNIAYPEWPVRGEAIVLTVPGSERSYDLTGLKPGTEYWVIIYGVKGGDRSNPLSAIFTT
Result string: 442

Query string: Identify the reported Human T-cell Binding 0.2 uM (MFI) for the following entry. P283DR9P1364_H9 (designed binder, FN3 domain) LPAPKNLVVSRVTEDSARLSWTAPDAAFDSFSISYIEYPEIPGGEAIVLTVPGSERSYDLTGLKPGTEYWVPIWGVKGGIQSWPLSAIFTT
Result string: 4060

Query string: Identify the reported Human T-cell Binding 0.2 uM (MFI) for the following entry. P283DR9P1364_A4 (designed binder, FN3 domain) LPAPKNLVVSRVTEDSARLSWTAPDAAFDSFYIAYPEWPVQGEAIVLTVPGSERSYDLTGLKPGTEYFVIIYGVKGGDWSEPLSAIFTT
Result string: 1024
